Examples of compounds with documented melting point follow.

# annotated cases, reported melting point shown
| compound | melting point |
| --- | --- |
| O=c1[nH]c(=O)c2c(N3CCCCC3)cccc2[nH]1 | > 280 °C |
| Cc1cnc2c(c1)CCCC2C(N)=O (configuration not stated) | 104 °C |
| CCCC(=O)C1=C(O)CC(c2c(C)c(C)c3c(c2C)CC(C)(C)O3)CC1=O (configuration not stated) | 83 °C |
| Oc1c(Br)c(Br)c(Cl)c(Br)c1Br | 210 to 212 °C |
| O=c1c2ccccc2sc2ccc(SCCO)cc12 | 94 °C |
| NNC(=O)c1cnn(-c2ccc(N(CCO)CCO)nn2)c1N | 217 to 219 °C |
| O=C1C[C@@H]2[C@@H](/C=C/[C@H](CCc3ccccc3)OC3CCCCO3)[C@H](OC(=O)c3ccc(-c4ccccc4)cc3)C[C@@H]2O1 (some centres not stated) | 118 to 119 °C |
| O=C1N(Cc2ccccn2)c2ccccc2C12COc1ccc3c(c12)OCCO3 (configuration not stated) | 132 to 134 °C |

Enquiry: Give the measured melting point of NC(=O)c1cnc2c(cc([N+](=O)[O-])c3nncc32)c(-c2ccccc2Cl)n1 .
Return: > 340 °C

Enquiry: Give the measured melting point of O=S1(=O)c2cccc3cccc(c23)N1CCCl .
Return: 96 °C

Enquiry: Give the measured melting point of CC1(C)C(=O)N(c2ccc(C#N)c(Cl)c2)C(=O)N1CCCCCN1C(=O)N(c2ccc(C#N)c(Cl)c2)C(=O)C1(C)C .
Return: 166 to 167 °C

Enquiry: Give the measured melting point of Clc1ccc(NNc2ccc(Cl)cc2)cc1 .
Return: 120 to 121 °C

Enquiry: Give the measured melting point of Nc1ccc(C(O)c2ccccn2)c(OCC(F)(F)F)c1 (configuration not stated) .
Return: 97 to 99 °C

Enquiry: Give the measured melting point of COc1cc(Br)c(C(C)=O)cc1O .
Return: 110 to 111 °C

Enquiry: Give the measured melting point of Cc1nc(CC2CCN(c3ccccc3)CC2)nc(C(=O)NCC(=O)O)c1O .
Return: 141 °C

Enquiry: Give the measured melting point of CC(=O)c1cccc(-c2ccc(OC[C@H](O)CCc3cccnc3)cc2)c1 .
Return: 58 to 60 °C

Enquiry: Give the measured melting point of c1ccc(-c2nc(-c3ccc4c(c3)OCO4)sc2-c2ccccc2)cc1 .
Return: 121 to 124 °C

Enquiry: Give the measured melting point of O=C(O)c1ccc(C(=O)Nc2cccc(Nc3nc(-c4cccnc4)cs3)c2)cc1 .
Return: 299 °C

Enquiry: Give the measured melting point of Nc1nc2c(ncn2OCCCP(=O)(O)O)c(=O)[nH]1 .
Return: > 300 °C

Enquiry: Give the measured melting point of COC(=O)C1=Cc2cc(-c3ccc(N4CCOCC4)cc3)ccc2SCC1 .
Return: 154 to 156 °C

* * *

measure: melting point

# annotated cases, reported melting point shown
| compound | result |
| --- | --- |
| COc1ccc(-c2ccc3c(c2)C=C(C(=O)Nc2ccc(CN(C)C4CCOCC4)cc2)CCS3(=O)=O)cc1 | 247 to 249 °C |
| Cc1cc(C(=O)CCl)c(N)cc1Cl | 129 to 130 °C |
| O=C(O)c1ccc2nc(-c3ccccc3)c(-c3ccccc3)nc2c1 | 290 to 292 °C |
| CS(=O)(=O)c1ccc(C(CC2CCCC2)C(N)=O)cc1Br (configuration not stated) | 60 to 63 °C |

Enquiry: Give the measured melting point of CCOC(=O)CCc1cccc(-c2c(CC(=O)Nc3ccc(F)cc3C(F)(F)F)c(=O)oc3ccccc23)c1 .
Return: 163 to 164 °C

Enquiry: Give the measured melting point of COc1cccc(S(=O)(=O)N(CC(N)=O)c2ccc(Cl)cc2Cc2ccccc2Cl)c1 .
Return: 65.7 °C

Enquiry: Give the measured melting point of Nn1c(C(F)(F)F)cc(=O)n(-c2c(F)cc(Cl)c3c2ONC3c2ccccc2)c1=O (configuration not stated) .
Return: 171 to 173 °C

Enquiry: Give the measured melting point of CCN(c1ccc(C)cc1)c1cc(NC)nc(C)n1 .
Return: 140 to 143 °C

Enquiry: Give the measured melting point of COc1ccc(-c2cc3ccccc3s2)cc1 .
Return: 188 to 190 °C
